Test system: Lactobacillus paracasei
Test: growth AUC relative to DMSO control (median of replicates) (fraction); higher = more growth (less inhibition), active = hit call of the paper
Settings: 20 µM; 24 h
endpoint name: growth AUC
Write the value as a bare number.

Here are 3 compounds together with their reported answers.
1. Cc1cc(Cl)ccc1OCC(=O)O | 1.04
2. O=C(NC(=O)c1c(F)cccc1F)Nc1cc(Cl)c(OC(F)(F)C(F)F)c(Cl)c1 | 0.62
3. CNC(=O)Oc1ccccc1OC(CCl)OC (stereo unspecified) | 1.04

Input: Given "CCOC(=O)COc1cc(-c2nn(C)c(OC(F)F)c2Cl)c(F)cc1Cl" , state its recorded growth AUC.
Output: 1.01

Input: growth AUC lookup needed for "CCCCCCCCCCCCC1=C(OC(C)=O)C(=O)c2ccccc2C1=O" , thanks.
Output: 0.894

====

The compounds listed here are annotated with their growth AUC.
System: Eubacterium rectale
Test: growth AUC relative to DMSO control (median of replicates) (fraction); higher = more growth (less inhibition), active = hit call of the paper
Conditions: 20 µM; 24 h
Note: the reply should be a number with no unit written.

Previously resolved entries follow.
1) O=C1C[C@@H]2OCC=C3CN4CC[C@]56c7ccccc7N1[C@H]5[C@H]2[C@H]3C[C@H]46 | 1
2) COc1cc(OC)nc(NC(=O)NS(=O)(=O)c2ncccc2C(F)(F)F)n1 | 1.09
3) CCOP(=S)(Oc1ccc([N+](=O)[O-])cc1)c1ccccc1 (stereo unspecified) | 1.02

Next:
Input: Returns the measured growth AUC for the input compound. Input: "CCOP(=S)(OCC)OP(=S)(OCC)OCC"
Output: 0.928

====

System: Escherichia coli IAI1
Assay: growth AUC relative to DMSO control (median of replicates) (fraction); higher = more growth (less inhibition), active = hit call of the paper
Conditions: 20 µM; 24 h
endpoint name: growth AUC
Just the number.

1. CNC(=O)O/N=C(\SC)C(=O)N(C)C | 0.987
2. Nc1ccc(Cl)cc1 | 1

Input: I am curious: what growth AUC value has been reported for "COC(=O)N(OC)c1ccccc1COc1ccn(-c2ccc(Cl)cc2)n1" ?
Output: 0.99

Input: Look up growth AUC: CC1(C)C(C(=O)OC(C#N)c2cccc(Oc3ccccc3)c2)C1(C)C (stereo not given)
Output: 0.988

Input: So what's the measured growth AUC for this one? OC(Cc1ccccc1Cl)(Cn1[nH]cnc1=S)C1(Cl)CC1 (stereo not given)
Output: 1.04

Input: # query: growth AUC of entry "CCCOCC(=Nc1ccc(Cl)cc1C(F)(F)F)n1ccnc1"
Output: 0.995

Input: Find the recorded growth AUC belonging to CC(C)=CC1C(C(=O)OC(C#N)c2cccc(Oc3ccccc3)c2)C1(C)C (mixture of isomers) and report it.
Output: 0.967

Input: Fill in: growth AUC of "CCC(C)(c1ccc(O)cc1)c1ccc(O)cc1" is ___
Output: 1.01

Input: Reported growth AUC for "CC(C)Oc1cc(-n2nc(C(C)(C)C)oc2=O)c(Cl)cc1Cl" : what is it?
Output: 0.993

Input: GET /values?readout=growth AUC&item= CC(C)(C)C(O)/C(=C/c1ccc(Cl)cc1Cl)n1cncn1 (mixture of isomers)
Output: 0.979

====

System: Fusobacterium nucleatum subsp. animalis
Test: growth AUC relative to DMSO control (median of replicates) (fraction); higher = more growth (less inhibition), active = hit call of the paper
Conditions: 20 µM; 24 h
// label = True if growth AUC is not less than 1, otherwise False

Example entries begin here.
1) CCOC(=O)N(C)C(=O)CSP(=S)(OCC)OCC | True
2) O=C(NCCc1ncc(C(F)(F)F)cc1Cl)c1ccccc1C(F)(F)F | False
3) CC(C)(C)c1ccc(CCOc2ncnc3ccccc23)cc1 | False
4) O=C1C=C(N(Cc2ccc(Cl)nc2)CC(F)F)CO1 | True
5) C#CCOc1ccc(CCNC(=O)C(OCC#C)c2ccc(Cl)cc2)cc1OC (stereo not drawn) | False
6) COc1ccc(C(c2ccc(OC)cc2)C(Cl)(Cl)Cl)cc1 | True
7) CC(=O)O.NC(N)=NCCCCCCCCNCCCCCCCCN=C(N)N | False
8) O=c1oc2ccccc2c(O)c1C1CC(c2ccc(-c3ccc(Br)cc3)cc2)Cc2ccccc21 (stereo not drawn) | False
9) CCS(=O)(=O)Oc1ccc2c(c1)C(C)(C)CO2 | False
10) CCNc1nc(Cl)nc(NC(C)(C)C#N)n1 | False

Input: Could you please find out whether "C[C@@H]1C[C@@H]([C@H](O)CC2CC(=O)NC(=O)C2)C(=O)[C@@H](C)C1" has growth AUC that meets 1 or exceeds it?
Output: True

Input: Does the reported growth AUC for "CCOP(=S)(OCC)Oc1ccc(Cl)cc1Cl" fall at or above the 1 mark?
Output: True

Input: Is growth AUC for "O=C(O)C(F)(F)C(F)(F)C(F)(F)C(F)(F)C(F)(F)C(F)(F)F" at or above 1?
Output: False

Input: Threshold query (growth AUC >= 1) on "Nc1nc(N)nc(NC2CC2)n1"
Output: True

Input: Textbook exercise: given the entry "CC(C)=NOCCOC(=O)[C@@H](C)Oc1ccc(Oc2cnc3cc(Cl)ccc3n2)cc1" , state whether its growth AUC is greater than or equal to 1.
Output: False

Input: Quick check: does "CCCN(CCCl)c1c([N+](=O)[O-])cc(C(F)(F)F)cc1[N+](=O)[O-]" have growth AUC greater than or equal to 1?
Output: True

Input: Kindly determine if growth AUC recorded for CCCC(Cn1cncn1)c1ccc(Cl)cc1Cl (stereo not drawn) is above or exactly 1.
Output: True

Input: Check if growth AUC >= 1 (inclusive). Item: "C[C@@H](Oc1ccc(Oc2cnc3cc(Cl)ccc3n2)cc1)C(=O)O"
Output: True
